tested on: A549; experiment: MTT cell viability assay, A549; type: cell-based, human; details: Homo sapiens, A549, 48 h, mean ± SE
metric: pIC50
Field pIC50 (float): negative decimal logarithm of the concentration in molar.

Worked set:
COc1ccc(/C=C/C(=O)c2ccc(O)c(C(N)=O)c2)cc1OC [a13] ... 4.42
Cc1ccccc1/C=C/C(=O)c1ccc(O)c(C(N)=O)c1 [a6] ... 4.29
NC(=O)c1cc(C(=O)/C=C/c2ccc(F)cc2)ccc1O [a1] ... 3.97

Below: the item to evaluate.
Need pIC50, item COc1ccc(/C=C/C(=O)c2ccc(O)c(C(N)=O)c2)c(OC)c1 [a12]
4.38
